# Test system: Human alphaherpesvirus 3
# assayMethodText: Antiviral activity against OKA strain of VZV in HEL ([…]) cells.
# Type: functional, organism-based
# Set-up: unit not given here
endpointName: EC50

Prompt line: For the molecule `Nc1nc(N)c(Cc2ccccc2)c(OCCOCP(=O)(O)O)n1` , report EC50.
Response line: > 0.15

Prompt line: For the molecule `Nc1cc(OCCOCP(=O)(O)O)nc(N)n1` , report EC50.
Response line: 0.0045

Prompt line: For the molecule `CCOC(=O)Cc1c(N)nc(N)nc1OCCOCP(=O)(O)O` , report EC50.
Response line: > 0.15

Prompt line: For the molecule `N#CCc1c(N)nc(N)nc1OCCOCP(=O)(O)O` , report EC50.
Response line: 0.14

Prompt line: For the molecule `Nc1nc(N)c(-c2ccccc2)c(OCCOCP(=O)(O)O)n1` , report EC50.
Response line: > 0.15

Prompt line: For the molecule `C=CCc1c(N)nc(N)nc1OCCOCP(=O)(O)O` , report EC50.
Response line: > 0.15

Prompt line: For the molecule `Nc1nc(N)n(CCOCP(=O)(O)O)c(=O)c1CC(=O)O` , report EC50.
Response line: > 0.15

Prompt line: For the molecule `CCOC(=O)Cc1c(N)nc(N)n(CCOCP(=O)(O)O)c1=O` , report EC50.
Response line: > 0.15

Prompt line: For the molecule `Nc1nc(N)n(CCOCP(=O)(O)O)c(=O)c1Cc1ccccc1` , report EC50.
Response line: > 0.15

Prompt line: For the molecule `Nc1nc(N)c(CC(=O)O)c(OCCOCP(=O)(O)O)n1` , report EC50.
Response line: > 0.15

Prompt line: For the molecule `N#CCc1c(N)nc(N)n(CCOCP(=O)(O)O)c1=O` , report EC50.
Response line: > 0.15

Prompt line: For the molecule `Nc1cc(OC[C@H](CO)OCP(=O)(O)O)nc(N)n1` , report EC50.
Response line: 0.00017

// provenance: ChEMBL document CHEMBL1145896
